- Test system: DU-145
- assayName: CCK-8 tumor cell proliferation, DU-145
- Format: cell-based, Human
- assayContext: Homo sapiens, DU-145, 96 h, read-out: IC50 for inhibiting the proliferation of tumor cells, DU-145
pIC50: −log10 of the molar value.
Below is a list of entries, each paired with its recorded pIC50 value.

Known results for compounds:
CC1(C)[C@H](NC(=O)c2ccc(N3CCC(CN4CC5CC(C4)N5c4ccc5c(c4)C(=O)N(C4CCC(=O)NC4=O)C5=O)CC3)nc2)C(C)(C)[C@H]1Oc1ccc(C#N)c(Cl)c1 (stereo partly shown) :: 5.30 to 6.00
CC1(C)[C@H](NC(=O)c2ccc(N3CCC(CN4CC5CC(C4)N5c4ccc5c(c4)C(=O)N(C4CCC(=O)NC4=O)C5=O)CC3)nn2)C(C)(C)[C@H]1Oc1ccc(C#N)c(Cl)c1 (stereo partly shown) :: 6.30 to 7.00
CC1(C)[C@H](NC(=O)c2ccc(N3CCC(CN4CC5CCC(C4)N5c4ccc5c(c4)C(=O)N(C4CCC(=O)NC4=O)C5=O)CC3)nc2)C(C)(C)[C@H]1Oc1ccc(C#N)c(Cl)c1 (stereo partly shown) :: 6.00 to 6.30
CC1(C)[C@H](NC(=O)c2ccc(N3CCC(CN4C5CC4CN(c4ccc6c(c4)C(=O)N(C4CCC(=O)NC4=O)C6=O)C5)CC3)nn2)C(C)(C)[C@H]1Oc1ccc(C#N)c(Cl)c1 (stereo partly shown) :: 6.00 to 6.30
CC1(C)[C@H](NC(=O)c2ccc(N3CCC(CN4CC5CCC(C4)N5c4cc5c(cc4F)C(=O)N(C4CCC(=O)NC4=O)C5=O)CC3)nc2)C(C)(C)[C@H]1Oc1ccc(C#N)c(Cl)c1 (stereo partly shown) :: 7.00 to 7.30

Task item: Consider the compound CC1(C)[C@H](NC(=O)c2ccc(N3CCC(CN4C5CCC4CN(c4ccc6c(c4)C(=O)N(C4CCC(=O)NC4=O)C6=O)C5)CC3)nn2)C(C)(C)[C@H]1Oc1ccc(C#N)c(Cl)c1 (stereo partly shown) and give its recorded pIC50.
Reply: 6.30 to 7.00

Task item: Consider the compound CC1(C)[C@H](NC(=O)c2ccc(N3CCC(CN4C5CCC4CN(c4cc6c(cc4F)C(=O)N(C4CCC(=O)NC4=O)C6=O)C5)CC3)nc2)C(C)(C)[C@H]1Oc1ccc(C#N)c(Cl)c1 (stereo partly shown) and give its recorded pIC50.
Reply: 6.30 to 7.00

Task item: Consider the compound CC1(C)[C@H](NC(=O)c2ccc(N3CCC(CN4CC5CCC(C4)N5c4cc5c(cc4F)C(=O)N(C4CCC(=O)NC4=O)C5=O)CC3)nn2)C(C)(C)[C@H]1Oc1ccc(C#N)c(Cl)c1 (stereo partly shown) and give its recorded pIC50.
Reply: 7.00 to 7.30

Task item: Consider the compound CC1(C)[C@H](NC(=O)c2ccc(N3CCC(CN4CC5CCC4CN5c4cc5c(cc4F)C(=O)N(C4CCC(=O)NC4=O)C5=O)CC3)nc2)C(C)(C)[C@H]1Oc1ccc(C#N)c(Cl)c1 (stereo partly shown) and give its recorded pIC50.
Reply: 5.30 to 6.00

Task item: Consider the compound CC1(C)[C@H](NC(=O)c2ccc(N3CCC(CN4CC5CC(C4)N5c4cc5c(cc4F)C(=O)N(C4CCC(=O)NC4=O)C5=O)CC3)nc2)C(C)(C)[C@H]1Oc1ccc(C#N)c(Cl)c1 (stereo partly shown) and give its recorded pIC50.
Reply: 6.30 to 7.00

----------
- Test system: MGC80-3
- assayName: CCK-8 tumor cell proliferation, MGC80-3
- Assay type: cell-based, Human
- assayContext: Homo sapiens, MGC-803, MGC80-3, 96 h, read-out: IC50 for inhibiting the proliferation of tumor cells, MGC80-3
pIC50: −log10 of the molar value.
resultType: pIC50

Known results for compounds:
CC1(C)[C@H](NC(=O)c2ccc(N3CCC(CN4CC5CC(C4)N5c4ccc5c(c4)C(=O)N(C4CCC(=O)NC4=O)C5=O)CC3)nc2)C(C)(C)[C@H]1Oc1ccc(C#N)c(Cl)c1 (some centres unmarked) :: 6.30 to 7.00
CC1(C)[C@H](NC(=O)c2ccc(N3CCC(CN4CC5CCC(C4)N5c4cc5c(cc4F)C(=O)N(C4CCC(=O)NC4=O)C5=O)CC3)nn2)C(C)(C)[C@H]1Oc1ccc(C#N)c(Cl)c1 (some centres unmarked) :: ≥ 7.30
CC1(C)[C@H](NC(=O)c2ccc(N3CCC(CN4C5CC4CN(c4ccc6c(c4)C(=O)N(C4CCC(=O)NC4=O)C6=O)C5)CC3)nn2)C(C)(C)[C@H]1Oc1ccc(C#N)c(Cl)c1 (some centres unmarked) :: 6.30 to 7.00
CC1(C)[C@H](NC(=O)c2ccc(N3CCC(CN4CC5CCC(C4)N5c4ccc5c(c4)C(=O)N(C4CCC(=O)NC4=O)C5=O)CC3)nc2)C(C)(C)[C@H]1Oc1ccc(C#N)c(Cl)c1 (some centres unmarked) :: ≥ 7.30

Lab note: next compound to report on.
Task item: Consider the compound CC1(C)[C@H](NC(=O)c2ccc(N3CCC(CN4C5CCC4CN(c4cc6c(cc4F)C(=O)N(C4CCC(=O)NC4=O)C6=O)C5)CC3)nc2)C(C)(C)[C@H]1Oc1ccc(C#N)c(Cl)c1 (some centres unmarked) and give its recorded pIC50.
Reply: 7.00 to 7.30

----------
- System: WSU-DLCL2
- assayName: CCK-8 tumor cell proliferation, WSU-DLCL2
- Format: cell-based, Human
- assayContext: WSU-DLCL2, 96 h, read-out: IC50 for inhibiting the proliferation of tumor cells, WSU-DLCL2
- Description: Determination of half inhibitory concentration (IC50) of the compounds against tumor cells: The tumor cells used herein were cultured in a cell culture medium listed in table 6 at 37° C. in an incubator with 5% CO2. […]
resultType: IC50

Known results for compounds:
N#Cc1ccc(OC2CCC(NC(=O)c3ccc(N4CCC(CN5C6CC5CN(c5cc7c(cc5F)C(=O)N(C5CCC(=O)NC5=O)C7=O)C6)CC4)nn3)CC2)cc1Cl (stereo not drawn) [GT-03487] :: 100 to 500 nM
N#Cc1ccc(OC2CCC(NC(=O)c3ccc(N4C5CC4CN(CC4CCN(c6cc7c(cc6F)C(=O)N(C6CCC(=O)NC6=O)C7=O)CC4)C5)nn3)CC2)cc1Cl (stereo not drawn) [GT-03451] :: 100 to 500 nM

Task item: Recall the reported IC50 of N#Cc1ccc(OC2CCC(NC(=O)c3ccc(N4CCC(CN5CC6CCC(C5)N6c5cc6c(cc5F)C(=O)N(C5CCC(=O)NC5=O)C6=O)CC4)nn3)CC2)cc1Cl (stereo not drawn) [GT-02765] when tested on WSU-DLCL2.
Reply: ≤ 50 nM

----------
- Tested on: SW620
- assayName: CCK-8 tumor cell proliferation, SW620
- Assay type: cell-based, Human
- assayContext: SW620, 96 h, CCK-8, Table 8 (AR-based); read-out: IC50 for inhibiting the proliferation of tumor cells, SW620
pIC50: −log10 of the molar value.
resultType: pIC50

Known results for compounds:
N#Cc1ccc(OC2CCC(NC(=O)c3ccc(N4CCC(CN5CCN(c6cc7c(cc6F)C(=O)N(C6CCC(=O)NC6=O)C7=O)CC5)CC4)nn3)CC2)cc1Cl (stereo not drawn) [GT-03016] :: 7.00 to 7.30
N#Cc1ccc(OC2CCC(NC(=O)c3ccc(N4CCC(CN5CC6CCC(C5)N6c5cc6c(cc5F)C(=O)N(C5CCC(=O)NC5=O)C6=O)CC4)nn3)CC2)cc1Cl (stereo not drawn) [GT-02765] :: ≥ 7.30

Task item: Consider the compound N#Cc1ccc(OC2CCC(NC(=O)c3ccc(N4CCC(CN5CC6CCC5CN6c5cc6c(cc5F)C(=O)N(C5CCC(=O)NC5=O)C6=O)CC4)nn3)CC2)cc1Cl (stereo not drawn) [GT-03773] and give its recorded pIC50.
Reply: 6.30 to 7.00

----------
- Tested on: LNcap
- assayName: CCK-8 tumor cell proliferation, LNcap
- Assay type: cell-based, Human
- assayContext: 96 h, read-out: IC50 for inhibiting the proliferation of tumor cells, LNcap
resultType: IC50

Known results for compounds:
N#Cc1ccc(OC2CCC(NC(=O)c3ccc(N4C5CCC4CN(CC4CCN(c6cc7c(cc6F)C(=O)N(C6CCC(=O)NC6=O)C7=O)CC4)C5)nn3)CC2)cc1Cl (centres unmarked) :: 50 to 100 nM
N#Cc1ccc(OC2CCC(NC(=O)c3ccc(N4CCC(CN5C6CC5CN(c5cc7c(cc5F)C(=O)N(C5CCC(=O)NC5=O)C7=O)C6)CC4)nn3)CC2)cc1Cl (centres unmarked) :: 100 to 500 nM
N#Cc1ccc(OC2CCC(NC(=O)c3ccc(N4CCC(CN5CC6CCC(C5)N6c5ccc6c(c5)C(=O)N(C5CCC(=O)NC5=O)C6=O)CC4)nn3)CC2)cc1Cl (centres unmarked) :: ≤ 50 nM

Task item: Recall the reported IC50 of N#Cc1ccc(OC2CCC(NC(=O)c3ccc(N4CC5CCC(C4)N5CC4CCN(c5cc6c(cc5F)C(=O)N(C5CCC(=O)NC5=O)C6=O)CC4)nn3)CC2)cc1Cl (centres unmarked) when tested on LNcap.
Reply: 100 to 500 nM

Task item: Recall the reported IC50 of N#Cc1ccc(OC2CCC(NC(=O)c3ccc(N4CCC(CN5CC6CC(C5)N6c5ccc6c(c5)C(=O)N(C5CCC(=O)NC5=O)C6=O)CC4)nn3)CC2)cc1Cl (centres unmarked) when tested on LNcap.
Reply: 100 to 500 nM
